Every entry's value here was drawn from PubChem BioAssay.

Exercise: state measured inhibition for each of the molecules provided.
procedure details: compounds interfering with TAMRA-BSA probe, counter-screen for TCR-CD3 interaction inhibitor project, biochemical, fluorescence, TAMRA-labeled BSA (AID 652035);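 note: 0% = buffer low control and 100% = reference high control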
condition set: TAMRA-labeled BSA probe fluorescence counterscreen; at 9.4 µM; hits give high values
The list shows a part of the results.
Numbers only, in %.

Some molecules with known inhibition results, for comparison:
>  <molecule>
COCCCNC(=S)NNC(=O)C(O)(c1ccccc1)c1ccccc1

>  <inhibition / %>
-0.41

$$$$
>  <molecule>
COCCOC(=O)c1sc(=S)n(CCOC)c1N

>  <inhibition / %>
42.3

$$$$
>  <molecule>
CCN(C(=O)Nc1cccc2ccccc12)c1ccccc1

>  <inhibition / %>
2.01

$$$$
>  <molecule>
CCC(=O)NC(=S)Nc1ccc(NC(=O)c2ccco2)c(Cl)c1

>  <inhibition / %>
3.69

$$$$
>  <molecule>
Oc1ccc(N=Cc2sc3ccccc3c2Cl)cc1

>  <inhibition / %>
13.2

$$$$

Items follow; give inhibition for each.
1. O=C1C(Cc2ccc(O)cc2)NC(=S)N1Cc1ccccc1 (stereo not drawn)
2. NS(=O)(=O)c1ccc(NC(=O)COC(=O)c2c3c(nc4ccccc24)/C(=C\c2ccc4c(c2)OCO4)CCC3)cc1

Result:
1: -2.95; 2: 5.98

Items follow; give inhibition for each.
1. COc1ccc(C(=O)NNc2cc(C)nc(NNC(=O)c3ccc(OC)cc3)n2)cc1
2. COc1ccccc1C(=O)NNC(=O)c1ccc(NC(=O)c2ccccc2)cc1
3. Nc1ccc2nc3c(=O)[nH]c(=S)[nH]c3nc2c1
4. O=C(NNC(=O)c1ccccc1O)c1ccccc1O
5. C=CCn1c(=O)c(C(=O)Nc2ncccc2O)c(O)c2ccccc21
6. COc1ccc(/C(=N\O)c2nccc3cc(OC)c(OC)cc23)cc1OC
7. C/C=C/C=C/C(=O)O

Result:
1. -5.67
2. -8.35
3. 10.6
4. 2.97
5. -7.93
6. -7.63
7. 3.35

Items follow; give inhibition for each.
1. O=C(N/N=C/c1cc([N+](=O)[O-])ccc1O)/C(=C\c1cccs1)NC(=O)c1ccccc1
2. Cc1cc(C(=O)CCC(=O)NNC(=O)c2ccccc2O)c(C)s1
3. CCOc1ccc(-n2c(O)c(/C=N/Nc3nnc(C)c(=O)[nH]3)c3ccccc3c2=O)cc1
4. CNC(=S)NNC(=O)c1cccn(Cc2ccccc2)c1=O

Result:
[-11.3, -14.4, -21.4, 4.48]
